Each recorded value in this set is attributed to patent US20140107219A1.

- study.target: hNav1.6 sodium channels (SCN8A gene, expressed in CHO cells) (Homo sapiens, UniProt Q9UQD0)
- Construct: expressed in transfected cells; host or cells: CHO cells
- Sequence (Q9UQD0 whole entry): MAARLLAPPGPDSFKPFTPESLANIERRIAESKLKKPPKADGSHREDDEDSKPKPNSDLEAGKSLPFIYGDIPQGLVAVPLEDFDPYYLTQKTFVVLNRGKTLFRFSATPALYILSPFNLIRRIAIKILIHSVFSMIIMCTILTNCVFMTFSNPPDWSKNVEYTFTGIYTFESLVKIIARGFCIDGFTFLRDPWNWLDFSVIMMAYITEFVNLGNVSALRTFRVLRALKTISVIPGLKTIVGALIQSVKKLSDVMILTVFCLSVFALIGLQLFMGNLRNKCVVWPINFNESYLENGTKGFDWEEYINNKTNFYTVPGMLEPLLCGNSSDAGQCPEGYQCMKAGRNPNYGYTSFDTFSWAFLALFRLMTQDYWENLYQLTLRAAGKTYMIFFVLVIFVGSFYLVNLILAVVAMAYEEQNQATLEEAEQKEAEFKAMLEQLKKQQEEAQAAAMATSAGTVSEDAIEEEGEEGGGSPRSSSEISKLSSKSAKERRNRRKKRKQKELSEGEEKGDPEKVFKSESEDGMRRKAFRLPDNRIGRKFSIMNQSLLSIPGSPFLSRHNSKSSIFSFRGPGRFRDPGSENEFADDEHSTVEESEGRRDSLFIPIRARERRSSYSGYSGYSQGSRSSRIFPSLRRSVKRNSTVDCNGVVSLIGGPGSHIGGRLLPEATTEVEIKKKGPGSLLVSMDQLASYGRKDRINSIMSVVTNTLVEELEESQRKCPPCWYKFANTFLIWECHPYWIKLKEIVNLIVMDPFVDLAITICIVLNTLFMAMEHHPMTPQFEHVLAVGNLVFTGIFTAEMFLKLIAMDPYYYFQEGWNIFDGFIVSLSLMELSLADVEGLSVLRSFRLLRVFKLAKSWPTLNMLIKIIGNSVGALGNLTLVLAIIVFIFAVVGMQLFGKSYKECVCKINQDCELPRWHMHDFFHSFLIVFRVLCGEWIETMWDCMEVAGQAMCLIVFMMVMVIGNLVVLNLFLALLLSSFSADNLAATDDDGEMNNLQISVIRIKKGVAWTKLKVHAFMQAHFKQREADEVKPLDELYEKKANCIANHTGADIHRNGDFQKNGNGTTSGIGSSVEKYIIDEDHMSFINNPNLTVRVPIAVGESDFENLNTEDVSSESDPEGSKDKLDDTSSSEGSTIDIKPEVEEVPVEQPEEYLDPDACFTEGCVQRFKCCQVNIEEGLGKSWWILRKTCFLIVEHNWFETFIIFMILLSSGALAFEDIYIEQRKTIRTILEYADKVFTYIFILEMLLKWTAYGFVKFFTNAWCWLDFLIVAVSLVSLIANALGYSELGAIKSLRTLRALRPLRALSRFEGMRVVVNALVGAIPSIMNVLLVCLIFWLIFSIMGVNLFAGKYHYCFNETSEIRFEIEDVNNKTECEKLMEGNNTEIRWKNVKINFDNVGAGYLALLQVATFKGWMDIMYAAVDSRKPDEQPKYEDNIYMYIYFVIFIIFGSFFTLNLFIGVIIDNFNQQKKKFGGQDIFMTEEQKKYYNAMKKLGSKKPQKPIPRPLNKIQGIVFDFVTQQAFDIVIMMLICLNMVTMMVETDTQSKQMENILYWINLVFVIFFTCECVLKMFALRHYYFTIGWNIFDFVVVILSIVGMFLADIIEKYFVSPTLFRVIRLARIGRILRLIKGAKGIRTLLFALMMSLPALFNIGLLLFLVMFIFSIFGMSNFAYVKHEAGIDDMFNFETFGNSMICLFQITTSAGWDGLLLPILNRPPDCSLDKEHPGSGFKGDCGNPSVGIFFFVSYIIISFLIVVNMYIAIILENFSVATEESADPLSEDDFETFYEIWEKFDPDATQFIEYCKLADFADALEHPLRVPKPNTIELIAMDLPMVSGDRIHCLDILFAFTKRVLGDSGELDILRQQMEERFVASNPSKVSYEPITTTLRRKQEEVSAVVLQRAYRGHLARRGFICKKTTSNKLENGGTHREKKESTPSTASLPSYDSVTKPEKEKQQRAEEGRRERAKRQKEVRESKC
- protocol.text: Automated patch clamp (PatchXpress 7000A), cloned hNav1.6 in CHO cells, tonic and phasic
- Type: cell-based
- experimental.parameters: FIG. 42; read-out: Nav1.6 IC50, tonic

- molecule: "CCN(CC)CC(=O)Nc1c(C)cccc1C [lidocaine, reference compound]"
  IC50: "1100 µM"

---

- study.target: hNav1.6 sodium channels (SCN8A gene, expressed in CHO cells) (Homo sapiens, UniProt Q9UQD0)
- Construct: expressed in transfected cells; host or cells: CHO cells
- protocol.text: Automated patch clamp (PatchXpress 7000A), cloned hNav1.6 in CHO cells, tonic and phasic
- Assay type: cell-based
- experimental.parameters: FIG. 42; read-out: Nav1.6 IC50, phasic

- molecule: "CCN(CC)CC(=O)Nc1c(C)cccc1C [lidocaine, reference compound]"
  IC50, µM: 260
